target: Thromboxane-A synthase (Rattus norvegicus, UniProt P49430); test: compound was tested for inhibitory activity against thromboxane synthetase,
REPORTED ENDPOINT: IC50 (µM)
Numbers only here, please. The scale is µM.

Request: Request the reported IC50 associated with O=C(NCCCCCn1ccnc1)c1ccc(Cl)cc1
Response: 5

---

target: UniProtKB P49430; test: Inhibitory activity for thromboxane synthetase determined by TXB2 levels in platelets from spontaneously hypertensive rats.; design: concentration or dose not given beside the values; conditions: concentration not given here
REPORTED ENDPOINT: inhibition (%)
Field: numeric (%). Do not append units.

{"columns": ["SAMPLE SMILES", "MEASUREMENT UNITS", "QUANTITATIVE READOUT"],
 "data": [
  ["Nc1ccc(Cl)cc1C(=O)NCCCn1ccnc1", "%", 96],
  ["O=C(NCCCCCn1ccnc1)c1ccc(Cl)cc1", "%", 100],
  ["O=C(COc1ccc(Cl)cc1)NCCCn1ccnc1", "%", 85],
  ["O=C(NCCCCCCn1ccnc1)c1ccc(Cl)cc1", "%", 100],
  ["Cc1nccn1CCCNC(=O)c1ccc(Br)cc1", "%", 66]
]}

Request: What does the data say about its inhibition? Entry: COc1cc(C(=O)NCCCn2cncn2)cc(OC)c1OC
Response: 64

Request: Endpoint output: inhibition of O=C(COc1ccc(Cl)cc1)NCCCn1cncn1 . Value?
Response: 56
